Hello, the source for this data is patent US20110286916A1, in case you need it.

Molecular target: T1, human full-length Notch1 with C-terminal FLAG tag, stably expressed on 293 FlpIn (TREx) cells (human, UniProt P46531 19-2555)
T1 construct: tetracycline/doxycycline-induced expression from pcDNA5/FRT/TO-HN1+FLAG; also called hN1; 293_N1
Experiment: FACS, phage scFv
READOUT KIND: binding result

Past entries and their recorded results:
# return recorded binding result for entry hN1S3-126 (scFv, V domains shown, phage scFv) VH: EVQLVQSGAEVKKPGASVKVSCKASGYNFTGYYMHWVRQAPGQGLEWMGWINPNSGGTNYAQKFQGRVTMTRDTSISTAYMELSRLRSDDTAVYYCATDSFDYWGQGTLVTVSS VL: SYVLTQPPSASGAPGQRVTISCSGSISNIGDNTVNWYQHLPRTAPKLVIYSDVQRPSGVPERFSGSKSGTSASLVISGLQAEDEADYYCASWDDSLDGVFFGGGTKLTVL
binds

# return recorded binding result for entry hN1S3-108 (scFv, V domains shown, phage scFv) VH: QVQLVQSGAEVRKPGASVKVSCKASGYTFTDYYLHWVRQAPGLGLEWMGWINPNTGGTDYGQKFQGRVTMTRDTSINTAYMELSSLRSDDTAVYYCARGAYDYVWGSHRYVADAFDIWGQGTTVTVSS VL: DIVMTQSPSTLSASVGDRVTITCRASQGISSWLAWYQQKPGRAPKVLIYKASTLESGVPSRFSGSGSGTDFTLTISSLQPEDFATYYCQQSYSTPWTFGQGTKLEIK
binds

# return recorded binding result for entry N1wc239 (scFv, V domains shown, phage scFv) VH: EVQLVESGAEVKKPGASVKVSCKASGYNFTGYYIHWVRQAPGQGLEWMGWINPNSGGTNYAQKFQGRVIMTRDTSISTAYMELSRLRSDDTAVYYCATDSFDYWGKGTMVTVSS VL: QSVLTQPPSASGTPGQRVAISCSGSHSNIRSNDVYWYQQFPGTAPKLLIYSNDQRPSGVSDRFAGSKSGTSASLAISGLRSEDESDYYCATWDDSLSGVVFGGGTKLTVL
binds

# return recorded binding result for entry N1wc45 (scFv, V domains shown, phage scFv) VH: EVQLVQSGAEVKKPGASVKVSCKASGYSFRSYGIVWVRQAPGQGLEWMGWISAYNGNTNYAQKLQGRVTMTTDTSTSTAYMELRSLRSDDTAVYYCVRGDRHYDILTGYSPVWFDPWGKGTTVTVSS VL: SSELTQDPAVSVALGQTVRITCQGDSLRSYYASWYQQKPGQAPVLVIYGKNNRPSGIPDRFSGSSSGNTASLTITGAQAEDEADYYCNSRDSSGNHVVFGGGTKLTVL
binds

# return recorded binding result for entry N1wc441 (scFv, V domains shown, phage scFv) VH: QVQLVQSGAEVKKPGASVKVSCKAPGYSFTDYYLHWVRQAPGIGLEWVGWINPNNGGTNYAQKFRGRVTMTRDTAINTAYMDMRWLRSDDTAVYYCATDGPPGTGNAFDIWGRGTLVTVSS VL: SYELTQPPSVSVSPGQTARITCSGDALPDKYVHWYQQKSGQAPVLVLFDDSKRPSGIPERFSGSSSGTVATLIISGAQVEDEGDFFCYSTDSSGNERVFGGGTKLTVL
binds

Next:
# return recorded binding result for entry hN1S3-146 (scFv, V domains shown, phage scFv) VH: EVQLVQSGPEVKKPGTSVKVSCKASGFTFTSSAVQWVRQARGQRLEWIGWIVVGSGNTNYAQKFQERVTITRDMSTSTAYMELSSLRSEDTAVYYCVADTVYWGKGTLVTVSS VL: QAVLTQPSSVSEAPRQRVTISCSGSSSNIGKNAVNWYQQLPGKAPKLLIYYDDLMPSGVSDRFSGSKSGTSASLAISGLQSEDEADYFCAAWDDSLSGWVFGGGTKLTVL
binds

# return recorded binding result for entry N1wc202 (scFv, V domains shown, phage scFv) VH: EVQLVQSGAEVKKPGASVKVSCKASGYNFTGYYMHWVRQAPGQGLEWMGWINPNSGGTNYAQKFQGRVTMTRDTSISTAYMELSRLRSDDTAVYYCATDSFDYWGRGTLVTVSS VL: SYELTQPPSVSGTPGQRVTISCSGSSSNIESNAVHWYQHLPGRAPKLLIFSHNQRPSGVPARFSGSKSGTSASLAISGLQSEDEADYYCAAWDDSLSGYVFASGTKLTVL
binds

# return recorded binding result for entry hN1S3-092 (scFv, V domains shown, phage scFv) VH: EVQLVQSGAEVKKPGASVKVSCKASGYNFTGYYMHWVRQAPGQGLEWMGWINPNSGGTNYAQKFQGRVTMTRDTSISTAYMELSRLRSDDTAVYYCATDSFDYWGQGTLVTVSS VL: QSVLTQPPSASGTPGQRVTISCSGSSSNIGANYVYWYQQLPGTAPKLLIYKNDQRPSGVPDRFSGSKSGTSASLAISGLRSEDEADYYCAAWDDSLSGLVFGGGTKVTVL
binds

# return recorded binding result for entry N1wc150 (scFv, V domains shown, phage scFv) VH: EVQLVQSGAEVKKPGASVKVSCKASGYNFTGYYMHWVRQAPGQGLEWMGWINPNSGGTNYAQKFQGRVTMTRDTSISTAYMELSRLRSDDTAVYYCATDSFDYWGRGTMVTVSS VL: SYELTQPPSASGTPGQRVTISCSGSGSNIGKNTVNWYQQLPGAAPKLLIYSNNERPSGVPGRFSGSKSGTSASLAISGLQSEDETDYYCAAWDDSLNDMVFGGGTKVTVL
binds

# return recorded binding result for entry hN1S3-087 (scFv, V domains shown, phage scFv) VH: QVQLVQSGAEVKKPGASVRISCKTSGFTFTSYFIHWVRQAPGQRPEWMGVINPSRGNADYAPRFRGRVTMTRDKSTHTVYMDLKSLRSDDAAIYYCARDRLGGLLDYYDSSDSSKNFDAFDFWGQGTLVTVSS VL: NFMLTQPHSVSESPGKTVTISCTRSSGSIGSSYVQWYQQRPGTSPVTIIYEDSQRPSGVPDRFSGSIDNSANSASLTISGLKTEDEADYYCQSYDANNRVFGGGTKLTVL
binds
